Ref: PubChem BioAssay (NCI)

System: SK-MEL-2 melanoma
Protocol description: NCI tumour cell line growth inhibition, 48 h
Measured quantity: TGI (µM)
Respond numerically; units are µM and should not be typed.

1. COc1cccc(-c2nn(-c3ccccc3)cc2-c2ccnc(NCCNS(=O)(=O)c3ccc(C(F)(F)F)cc3)c2)c1 : 6.47
2. CCCCCCCCCOC(=S)NC : 41
3. CC(C)C1C(=O)N2CCCC2C2(O)OC(NC(=O)C3C=C4c5cccc6[nH]cc(c56)CC4N(C)C3)(C(C)C)C(=O)N12 (stereo not given) : 42.4
4. CC(C)(Cl)CCC1=C(Cl)C(=O)c2ccccc2C1=O : 4.97

Okay, now this compound:
Fill in TGI for record CCOC(=O)Cn1c(=O)c2nc(SC)sc2n(-c2ccc(C)cc2)c1=S 96.8

---

System: SF-295 CNS
Protocol description: NCI tumour cell line growth inhibition, 48 h; in the data active = GI50 below about 0.43 µM; inactive = the rest
Allowed answers: active, inactive

1. C[C@H]1CCC/C=C/[C@@H]2C[C@H](O)C[C@H]2[C@H](O)[C@H](S(=O)c2ccc(O)cc2)CC(=O)O1 (some centres undefined) : active
2. COc1ccc(C(=S)c2cc(OC)c(OC)c(OC)c2)cc1OC(=O)CCl : active
3. O=c1oc2ccc(Cl)cc2c(=O)n1-c1ccc(Cl)cc1F : inactive
4. C/C(=C\c1ccn(-c2ccc(N)c(C(F)(F)F)c2)n1)[C@@H]1C[C@@H]2O[C@]2(C)CCC[C@H](C)[C@H](O)[C@@H](C)C(=O)C(C)(C)[C@@H](O)CC(=O)O1 : active
5. CCC[CH2][Sn]1([CH2]CCC)[O]C(c2ccccn2)S(=O)(=O)[O]1 (centres undefined) : inactive
6. CC(C)(Cl)CCC1=C(Cl)C(=O)c2ccccc2C1=O : inactive

Per the records of this test, what outcome belongs to CCc1ccc(C2=C/C(=C/c3ccc(Cl)cc3)C(=O)N2CCc2ccc(S(N)(=O)=O)cc2)cc1 ? inactive

Tell me the recorded outcome of this test for CC[O-].CC[O-].[O-]c1ccccc1C=Nc1ccccc1.[O-]c1ccccc1C=Nc1ccccc1.[Ti+4] . inactive

---

Examples of compounds with documented TGI follow.
System: A549 NSCLC
Protocol description: NCI tumour cell line growth inhibition, 48 h

1. O=c1oc2ccc(Cl)cc2c(=O)n1-c1ccc(Cl)cc1F : > 31.6 µM
2. C[C@H](c1ccc(Cl)cc1N)N1C(=O)c2cc(I)ccc2N(CCCN2CCN(C)CC2)C(=O)[C@@H]1c1ccc(Cl)cc1 : 2.57 µM
3. Cc1ccc(S(=O)(=O)Nn2c(-c3ccccc3)c(C#N)c(-c3ccc(Cl)cc3)c(C#N)c2=O)cc1 : > 100 µM
4. CCN1C(C)=NC2C(=O)c3ccccc3C(=O)C21 (stereo unspecified) : > 100 µM

Give A549 NSCLC TGI for the following compound: NCCCNc1ccc2c(c1)[n+]([O-])c1ccccc1[n+]2[O-] > 100 µM

---

System: SNB-75 CNS
Protocol description: NCI tumour cell line growth inhibition, 48 h; in the data active means GI50 below about 0.43 µM; inactive means the rest
# output must be one of active, inactive

Example entries and their recorded answers appear below.
1. Nc1ccccc1NC(=O)c1ccc(CSc2nc(N3CCOCC3)c3cccn3n2)cc1 : active
2. CCC1CCc2nc3sc(C(=O)Nc4ccccc4F)c(N)c3cc2C1 (stereo not drawn) : inactive
3. COc1ccc(-c2coc3ncnc(N)c23)cc1 : inactive

In this assay, the call recorded for C/C(=C\c1ccn(-c2ccc(N)c(C(F)(F)F)c2)n1)[C@@H]1C[C@@H]2O[C@]2(C)CCC[C@H](C)[C@H](O)[C@@H](C)C(=O)C(C)(C)[C@@H](O)CC(=O)O1 was what? active

Called result for CCN1C(=O)N(CC)C2C1NN=c1s/c(=C3\C(=O)N(CCC(C)C)c4ccccc43)c(=O)n12 (stereo not drawn) inactive

Lab log entry: CC(C)(Cl)CCC1=C(Cl)C(=O)c2ccccc2C1=O — outcome as called in the assay? inactive

What did this assay record as the result for C#C[C@@]1(O)[C@@H](CO)O[C@@H](n2cc(Cl)c3c(N)ncnc32)[C@@H]1O ? active

State the result this test recorded for COc1cc2c(c(OC)c1OC)-c1ccc([O-])c(=O)cc1[C@@H](NC(C)=O)CC2.COc1cc2c(c(OC)c1OC)-c1ccc([O-])c(=O)cc1[C@@H](NC(C)=O)CC2.[Cu+2] . inactive

---

Tested on: MDA-MB-231 breast
Protocol description: NCI tumour cell line growth inhibition, 48 h
Measured quantity: TGI (µM)
Number only, in µM; omit the unit.

Past entries and their recorded results:
1. C[C@]12CC[C@@H]3c4ccc(OC(=O)c5ccccc5)cc4CC[C@H]3[C@@H]1CCC2OC(=O)c1cccc2c(=O)c3ccccc3[nH]c12 (stereo not given in full) : 40.8
2. O=C(CCl)N1CCCCC1C1(c2cc3ccccc3[nH]2)OCCO1 (stereo not given) : 12.8

Report the value of TGI obtained on MDA-MB-231 breast for C=C(Cl)C(C)(Cl)CCC(Cl)C(C)(C)Cl (stereo not given) . 83.3

Enter recorded TGI with MDA-MB-231 breast for CC1=CC(C)C(C)N(CCNC(=O)Nc2ccccc2)c2ccccc21 (stereo not given) here. 31.1

Check MDA-MB-231 breast data and give TGI for O=c1ncc(-c2ccc(C(F)(F)F)cc2)c(NC2CCCCCC2)[nH]1 . 38.1

---

Test system: UACC-62 melanoma
Protocol description: NCI tumour cell line growth inhibition, 48 h
In this section we review reported TGI values for a set of compounds.

1. CN1C(=O)n2c(nc3ccccc32)C(N=[N+]=[N-])(N=[N+]=[N-])C1=O (stereo unspecified) : > 100 µM
2. CC(=O)OCc1nc(C#N)c(N)o1 : > 100 µM
3. N=c1nc(N)c2cc3c(N)nc(=N)c3cc12 : 23.5 µM
4. CCOC(=O)[C@H](CSSc1ncnc2cc[nH]c12)NC(=O)[C@@H](C)c1ccc2cc(OC)ccc2c1 : > 100 µM
5. CCC[CH2][Sn]1([CH2]CCC)[O]C(c2ccccn2)S(=O)(=O)[O]1 (stereo unspecified) : 3.78 µM

Next, consider the following compound.
Give the measured TGI for NCC(=O)C(O)C(O)C(O)CO (stereo unspecified) > 100 µM

---

Tested on: CAKI-1 renal
Protocol description: NCI tumour cell line growth inhibition, 48 h; in the data active = GI50 below about 0.43 µM; inactive = the rest
Your response should consist of one outcome taken from 1.0 for active, 0.0 for inactive

Example entries begin here.
1) O=S(=O)(NCCNc1cc(-c2cn(-c3ccccc3)nc2-c2cccc(O)c2)ccn1)c1ccc(C(F)(F)F)cc1 : 0.0
2) CN1CCN(C(=O)c2ccc(NC(=O)Nc3ccc(N(C)c4ccnc(Nc5ccc(CS(C)(=O)=O)cc5)n4)cc3)cc2)CC1 : 0.0
3) CCCCCCCCN(CCCCCCCC)C(=N)c1ccnc2ccccc12 : 0.0

Any idea what this test logged for COc1cc(N2CCC(N3CCN(C)CC3)CC2)ccc1Nc1ncc(Cl)c(Nc2ccccc2P(C)(C)=O)n1 ? 0.0

Kindly provide the recorded test outcome for the following molecule: COc1cc2c(c(OC)c1OC)-c1ccc([O-])c(=O)cc1[C@@H](NC(C)=O)CC2.COc1cc2c(c(OC)c1OC)-c1ccc([O-])c(=O)cc1[C@@H](NC(C)=O)CC2.[Cu+2] 0.0

What did this assay record as the result for O=c1oc2ccc(Cl)cc2c(=O)n1-c1ccc(Cl)cc1F ? 1.0

Call for entry COc1cc2[nH]c(C(=O)c3cc(OC)c(OC)c(OC)c3)c(N)c2cc1C#CCO : 0.0

Recorded call for CC(C)(Cl)CCC1=C(Cl)C(=O)c2ccccc2C1=O ? 0.0

---

System: CCRF-CEM leukemia
Protocol description: NCI tumour cell line growth inhibition, 48 h
Item-by-item account of GI50

Study these solved cases before continuing.
1) Nc1ncc(-c2cnn(C3CCNCC3)c2)cc1-c1nc2ccccc2o1 : 235 nM
2) CCN(Cc1ccc(F)cc1)c1ccc(CO)c(Cl)c1 : 15900 nM
3) CCCCCCCCN(CCCCCCCC)C(=N)c1ccnc2ccccc12 : 466 nM
4) C[C@H]1CCC/C=C/[C@@H]2C[C@H](O)C[C@H]2[C@H](O)[C@H](S(=O)c2ccc(O)cc2)CC(=O)O1 (some centres undefined) : 48 nM
5) CCN1C(=O)N(CC)C2C1NN=c1s/c(=C3\C(=O)N(CCC(C)C)c4ccccc43)c(=O)n12 (centres undefined) : 2660 nM

Now, please, on to the next compound.
Dear colleague, please send me the reported GI50 for CCCCCCN(CCCCCC)C(=N)c1ccnc2ccccc12 when you can. 3170 nM

---

GI50: recorded values
Tested on: MDA-MB-231 breast
Protocol description: NCI tumour cell line growth inhibition, 48 h

1. O=S(=O)(/C=C/C=C/S(=O)(=O)c1ccccc1)c1ccccc1 : 1870 nM
2. CS(=O)(=O)c1ccc(N/N=C/c2c(-c3ccc(S(C)(=O)=O)cc3)[nH]c3ccc(F)cc23)cc1 : 1690 nM
3. CCOC(=O)[C@H](CSSc1ncnc2cc[nH]c12)NC(=O)[C@@H](C)c1ccc2cc(OC)ccc2c1 : 1080 nM

Output measured GI50 for this item: CCN(Cc1ccc(F)cc1)c1ccc(CO)c(Cl)c1 15600 nM

Give recorded GI50. COc1cc2[nH]c(C(=O)c3cc(OC)c(OC)c(OC)c3)c(N)c2cc1C#CCO 629 nM

Please report the measured GI50 for C[C@H](c1ccc(Cl)cc1N)N1C(=O)c2cc(I)ccc2N(CCCN2CCN(C)CC2)C(=O)[C@@H]1c1ccc(Cl)cc1 1530 nM

Return the recorded GI50 value; entry: CCc1ccc(C2=C/C(=C/c3ccc(Cl)cc3)C(=O)N2CCc2ccc(S(N)(=O)=O)cc2)cc1 2360 nM

Name the recorded GI50 of the item O=S(=O)(NCCNc1cc(-c2cn(-c3ccccc3)nc2-c2cccc(O)c2)ccn1)c1ccc(C(F)(F)F)cc1 in your answer. 2120 nM
